# Target: T1, TNFR2-His (Sino Biological, 10417-H08H, NP_001057.1 Met1-Asp257, with multi-histidine tag expressed on … (human, UniProt P20333 23-257))
# T1 construct: range 1-257; Bought protein; also called recombinant human TNFR2 protein; TNFR2-His antigen; not shown: C-terminal multi-histidine tag
# T1 sequence (looked up): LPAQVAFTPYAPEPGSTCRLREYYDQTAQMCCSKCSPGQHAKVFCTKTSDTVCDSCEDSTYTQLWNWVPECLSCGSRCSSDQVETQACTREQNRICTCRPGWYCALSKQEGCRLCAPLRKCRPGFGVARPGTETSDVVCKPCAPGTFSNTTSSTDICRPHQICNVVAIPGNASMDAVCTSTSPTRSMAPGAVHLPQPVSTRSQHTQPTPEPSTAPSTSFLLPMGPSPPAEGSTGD
# Experiment notes: ELISA, plate coated with TNFR2-His
Experimental endpoint: EC50 (µg/mL)

[
  {
    "Binder": "33C12huVH2 + huVL3(P07303) (antibody, V domains shown, Humanized 33C12) VH: EVQLVESGGGLVKPGGSLRLSCAASGFTFSDYTMSWVRQAPGKGLEWVATISTGGSYTYYPDSVKGRFTISRDNAKNTLYLQMSSLRAEDTAVYYCARDGGYDGDYFDYWGQGTTVTVSS VL: EIVLTQSPATLSLSPGERATLSCRASSSVSSSYLHWYQQKPGQAPRLLIYRTSNLATGIPDRFSGSGSGTDFTLTISRLEPEDFAVYYCQQYSGYPLTFGGGTKLEIK",
    "Experimental endpoint": "EC50",
    "Test value": 0.115
  },
  {
    "Binder": "33C12huVH1 + huVL1(P07298) (antibody, V domains shown, Humanized 33C12) VH: DVQLVESGGGLVKPGGSLRLSCAASGFTFSDYTMSWVRQAPGKGLEWVATISTGGSYTYYPDSVKGRFTISRDNAKNTLYLQMSSLRAEDTAVYYCTRDGGYDGDYFDYWGQGTTVTVSS VL: ENVLTQSPATLSLSPGERATMSCRASSSVSSSYLHWYQQKPGQAPRLWIYRTSNLASGVPARFSGSGSGTDYTLTISRVEPEDFAVYYCQQYSGYPLTFGGGTKLEIK",
    "Experimental endpoint": "EC50",
    "Test value": 0.0646
  },
  {
    "Binder": "33C12huVH3 + huVL1(P07300) (antibody, V domains shown, Humanized 33C12) VH: EVQLVESGGGLVKPGGSLRLSCAASGFTFSDYTMSWVRQAPGKGLEWVATISTGGSYTYYADSVKGRFTISRDNAKNSLYLQMNSLRAEDTAVYYCARDGGYDGDYFDYWGQGTTVTVSS VL: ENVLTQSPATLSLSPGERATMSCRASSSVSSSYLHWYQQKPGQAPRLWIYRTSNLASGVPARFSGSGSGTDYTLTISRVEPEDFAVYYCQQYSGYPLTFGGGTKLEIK",
    "Experimental endpoint": "EC50",
    "Test value": 0.161
  },
  {
    "Binder": "33C12huVH2 + huVL2(P07301) (antibody, V domains shown, Humanized 33C12) VH: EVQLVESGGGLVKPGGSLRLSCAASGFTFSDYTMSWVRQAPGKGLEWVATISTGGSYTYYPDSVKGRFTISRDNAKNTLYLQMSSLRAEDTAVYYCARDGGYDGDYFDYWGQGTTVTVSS VL: ENVLTQSPATLSLSPGERATLSCRASSSVSSSYLHWYQQKPGQAPRLWIYRTSNLASGVPARFSGSGSGTDFTLTISRLEPEDFAVYYCQQYSGYPLTFGGGTKLEIK",
    "Experimental endpoint": "EC50",
    "Test value": 0.132
  },
  {
    "Binder": "33C12huVH3 + huVL2(P07302) (antibody, V domains shown, Humanized 33C12) VH: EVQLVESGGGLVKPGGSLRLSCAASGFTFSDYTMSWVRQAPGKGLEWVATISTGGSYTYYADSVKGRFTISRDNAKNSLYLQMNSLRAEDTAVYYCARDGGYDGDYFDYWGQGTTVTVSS VL: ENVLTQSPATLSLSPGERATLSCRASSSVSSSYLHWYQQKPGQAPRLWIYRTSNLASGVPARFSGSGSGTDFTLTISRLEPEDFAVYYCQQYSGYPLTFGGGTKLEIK",
    "Experimental endpoint": "EC50",
    "Test value": 0.303
  },
  {
    "Binder": "33C12huVH2 + huVL1(P07299) (antibody, V domains shown, Humanized 33C12) VH: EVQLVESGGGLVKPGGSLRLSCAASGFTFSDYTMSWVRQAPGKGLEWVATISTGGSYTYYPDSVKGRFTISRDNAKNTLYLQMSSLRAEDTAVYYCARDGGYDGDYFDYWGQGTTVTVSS VL: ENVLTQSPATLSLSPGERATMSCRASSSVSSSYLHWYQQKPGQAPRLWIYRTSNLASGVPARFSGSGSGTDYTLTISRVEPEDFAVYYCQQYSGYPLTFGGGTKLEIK",
    "Experimental endpoint": "EC50",
    "Test value": 0.218
  },
  {
    "Binder": "33C12huVH3 + huVL3(P07304) (antibody, V domains shown, Humanized 33C12) VH: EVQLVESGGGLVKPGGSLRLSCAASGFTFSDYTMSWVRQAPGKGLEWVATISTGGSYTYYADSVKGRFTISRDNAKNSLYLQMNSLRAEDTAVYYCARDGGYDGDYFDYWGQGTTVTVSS VL: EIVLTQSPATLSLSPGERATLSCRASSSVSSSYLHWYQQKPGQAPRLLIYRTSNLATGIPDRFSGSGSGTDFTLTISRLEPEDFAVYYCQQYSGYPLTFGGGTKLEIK",
    "Experimental endpoint": "EC50",
    "Test value": 0.0528
  }
]
